Test system: A549
Assay summary: Cytotoxicity against human A549 cells
Assay type: functional
Stated conditions: read-out: ED50 (the source's name)
Quantity name: EC50

- Compound: "CC(=O)O[C@]1(C)CC[C@H](C(C)C)[C@@H]2[C@H]1[C@H]1/C=C(/C)C(=O)CC[C@@](C)(OC(C)=O)[C@@H]2O1 [PALMONINE E]"
  Result: "> 10 µg/mL"
- Compound: "CO[C@H]1CC[C@@](C)(OC(C)=O)[C@@H]2O[C@H](C[C@]1(C)O)[C@@H]1[C@H]2[C@@H](C(C)C)CC[C@@]1(C)OC(C)=O [PALMONINE A]"
  Result: "> 10 µg/mL"
- Compound: "C=C1C[C@H]2O[C@H]([C@H]3[C@@H]2[C@](C)(OC(C)=O)CC[C@@H]3C(C)C)[C@](C)(OC(C)=O)CC[C@@H]1O [PALMONINE F]"
  Result: "> 10 µg/mL"
- Compound: "C=C1C[C@H]2O[C@H]([C@H]3[C@@H]2[C@](C)(OC(C)=O)CC[C@@H]3C(C)C)[C@](C)(OC(C)=O)CCC1=O [PALMONINE D]"
  Result: "> 10 µg/mL"
- Compound: "CO[C@H]1CC[C@@](C)(OC(C)=O)[C@@H]2O[C@H](C[C@]1(C)O)[C@@H]1[C@H]2[C@@H](C(C)C)CC[C@@]1(C)O [PALMONINE C]"
  Result: "> 10 µg/mL"
